B1: library; numbered along this chain (parent)
chain: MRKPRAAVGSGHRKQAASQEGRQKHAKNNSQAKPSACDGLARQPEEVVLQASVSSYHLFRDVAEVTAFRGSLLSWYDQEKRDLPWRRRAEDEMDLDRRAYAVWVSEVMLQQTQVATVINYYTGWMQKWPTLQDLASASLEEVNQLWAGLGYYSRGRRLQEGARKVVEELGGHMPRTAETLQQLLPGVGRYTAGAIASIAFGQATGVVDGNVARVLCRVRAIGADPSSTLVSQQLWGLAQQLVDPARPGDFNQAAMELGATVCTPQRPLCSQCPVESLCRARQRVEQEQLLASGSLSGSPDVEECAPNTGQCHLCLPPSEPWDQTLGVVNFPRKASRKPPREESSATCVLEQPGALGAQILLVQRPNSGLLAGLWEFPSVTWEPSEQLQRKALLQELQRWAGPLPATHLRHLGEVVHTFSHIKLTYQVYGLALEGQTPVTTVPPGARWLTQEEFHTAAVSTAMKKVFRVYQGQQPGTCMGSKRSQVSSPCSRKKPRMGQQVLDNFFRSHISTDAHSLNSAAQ

Variants of: B1
Assay: 8OG:A repair function score (normalized; synonymous = 0, nonsense = -1) (normalized log-likelihood score); higher = more repair activity (WT-like);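 also: cells sorted at 72 h after reporter transfection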
Details: with 8OG:A DNA repair reporter (GFP) in HEK-293 MUTYH KO cells
Classes are defined on 8OG:A repair function score with ranges low group = under -0.2, middle group = from -0.2 up to -0.02, high group = -0.02 and over

[in] Which category does the recorded 8OG:A repair function score put `P273G` in?
[out] low group

Others:
[in] Assign a category based on measured 8OG:A repair function score for `G205W` and give only the class name.
[out] low group

[in] Categorize the following entry: `K390L`
[out] middle group

[in] Which bin should I file `P129M` under?
[out] low group

[in] Which band does `Y151F` fall in?
[out] middle group

[in] The entry to classify is `Y152G` ; which class holds it?
[out] low group

[in] Categorize the following entry: `T228R`
[out] high group

[in] Textbook exercise: identify the category of the variant given here, `Q499D` , according to its measured value.
[out] middle group

[in] // bin(item) where item = `T116D`
[out] low group

[in] Place this variant in its band: `T130Q`
[out] middle group

[in] # classify by 8OG:A repair function score band: `R189F`
[out] low group

[in] Returns: class label. Input: `H172T`
[out] high group

[in] GET /class?item= `P331D`
[out] low group

[in] Field: class (8OG:A repair function score) — entry: `Q498W`
[out] high group

[in] Bin? `S294F`
[out] middle group

[in] Exam item: assign `P437G` to the correct category.
[out] high group

[in] Bin? `I509P`
[out] high group

[in] Class label required: `F59Q`
[out] low group

[in] Which class does `S153R` fall in?
[out] low group

[in] Lab note: sort `V485W` into the matching 8OG:A repair function score band.
[out] middle group

[in] Each variant maps to one class by 8OG:A repair function score. Which class for `Q450V` ?
[out] high group

[in] Given `G479I` , name the class its 8OG:A repair function score places it in.
[out] high group

[in] Into which category would you place `L72F` ?
[out] low group
